Data credit: PubChem BioAssay AID1159580

- test method notes: chemical genetic growth profiling, strain panel (AID 1159580);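 also: tested at 20 µM; growth read once vehicle control cultures reached saturation at 30 °C; 1 = growth at the plate median or of vehicle wells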
- assay conditions: S. cerevisiae deletion strains, growth OD, locus YLR371W, strain rom2, stronger effect = lower value
The campaign covered roughly 5,500 compounds. About 2,000 (36%) were called active. Inconclusive results (about 18%) are left out. Some of the results follow.
Assign normalized growth to each entry below.

Exam item: # return recorded normalized growth for input COc1cc([C@@H]2c3cc4c(cc3[C@H](O)[C@H]3COC(=O)[C@H]23)OCO4)cc(OC)c1OC
Marked response: 1.02 (inactive)

Exam item: # return recorded normalized growth for input COc1cc(OC)c2c(OC)c(-c3ccc4c(c3)OCO4)c(=O)oc2c1
Marked response: 0.984 (inactive)

Exam item: # return recorded normalized growth for input NC(Cc1ccc(Cl)cc1)C(=O)O (stereo not drawn)
Marked response: 0.993 (inactive)

----------
Assign normalized growth to each entry below.
- test method notes: chemical genetic growth profiling, strain panel (AID 1159580);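 also: tested at 20 µM; growth read once vehicle control cultures reached saturation at 30 °C; 1 = growth at the plate median or of vehicle wells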
- assay conditions: S. cerevisiae deletion strains, growth OD, locus YDR392W, strain spt3, stronger effect = lower value
Screen size: about 5,500 compounds; about 2,000 (36%) were called active. Inconclusive results (about 18%) are left out. This is one part of the list.

Exam item: # return recorded normalized growth for input CCCC(=O)Nc1ccc(OCC(O)CNC(C)C)c(C(C)=O)c1 (stereo not given)
Marked response: 0.995 (inactive)

Exam item: # return recorded normalized growth for input CC(=O)NS(=O)(=O)c1ccc(N)cc1
Marked response: 1.01 (inactive)

Exam item: # return recorded normalized growth for input CNC(C)[C@@H]1CC[C@@H](N)[C@@H](OC2[C@@H](N)C[C@@H](N)[C@H](OC3OC[C@](C)(O)[C@H](NC)[C@H]3O)[C@H]2O)O1 (stereo not given in full)
Marked response: 1.03 (inactive)

Exam item: # return recorded normalized growth for input COCC1=C(C(=O)OC(C)OC(=O)OC(C)C)N2C(=O)[C@@H](NC(=O)/C(=N\OC)c3csc(N)n3)[C@H]2SC1 (stereo not given in full)
Marked response: 0.919 (inactive)

Exam item: # return recorded normalized growth for input O=C(Nc1ccc([N+](=O)[O-])cc1Cl)c1cc(Cl)ccc1O
Marked response: 0.828 (inactive)

----------
- test method notes: chemical genetic growth profiling, strain panel (AID 1159580);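 also: tested at 20 µM; growth read once vehicle control cultures reached saturation at 30 °C; 1 = growth at the plate median or of vehicle wells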
- assay conditions: S. cerevisiae deletion strains, growth OD, locus YDR388W
The campaign covered roughly 5,500 compounds. About 2,000 (36%) were called active. Not shown: some 18% with an inconclusive outcome. No stated cut-off is given here; in the data, active means normalized growth mostly below about 0.91 (no sharp cut-off); inconclusive means no clear call, values can overlap the other calls; inactive means mostly above about 0.92. The list shows a part of the results.
Write down the outcome that applies. Available outcomes: active, inactive

Exam item: Hi, sorry to bother you, what did the test record for COP(=O)(NC(C)=O)SC (configuration not stated) ?
Marked response: inactive

Exam item: Hi, sorry to bother you, what did the test record for COc1cc([C@@H]2c3cc4c(cc3[C@H](O)[C@H]3COC(=O)[C@H]23)OCO4)cc(OC)c1OC ?
Marked response: inactive

Exam item: Hi, sorry to bother you, what did the test record for CC(NC(C)(C)C)C(=O)c1cccc(Cl)c1 (configuration not stated) ?
Marked response: inactive

Exam item: Hi, sorry to bother you, what did the test record for CC1=C(C(=O)O)N2C(=O)[C@@H](NC(=O)[C@@H](N)c3ccc(O)cc3)[C@H]2SC1 ?
Marked response: inactive

Exam item: Hi, sorry to bother you, what did the test record for O=C(O)CCC(=O)OC[C@@H](NC(=O)C(Cl)Cl)[C@H](O)c1ccc([N+](=O)[O-])cc1 ?
Marked response: inactive

Exam item: Hi, sorry to bother you, what did the test record for CNC(C)[C@@H]1CC[C@@H](N)[C@@H](OC2[C@@H](N)C[C@@H](N)[C@H](OC3OC[C@](C)(O)[C@H](NC)[C@H]3O)[C@H]2O)O1 (some centres not stated) ?
Marked response: inactive

Exam item: Hi, sorry to bother you, what did the test record for O=c1c(O)c(-c2ccccc2)oc2ccccc12 ?
Marked response: inactive

Exam item: Hi, sorry to bother you, what did the test record for O=C(N[C@@H](CO)[C@H](O)c1ccc([N+](=O)[O-])cc1)C(Cl)Cl ?
Marked response: inactive

Exam item: Hi, sorry to bother you, what did the test record for C[C@H]1C(=O)CCC2[C@]3(C)CC[C@@]4(C)C5CC(C)(C)CC[C@]5(C)CC[C@]4(C)C3CC[C@@]21C (some centres not stated) ?
Marked response: inactive

Exam item: Hi, sorry to bother you, what did the test record for O=C(O)CC[N+](=O)[O-] ?
Marked response: inactive

Exam item: Hi, sorry to bother you, what did the test record for CN1CCN(C2=Nc3cc(Cl)ccc3Nc3ccccc32)CC1 ?
Marked response: inactive

Exam item: Hi, sorry to bother you, what did the test record for CN(C)CCC[C@@]1(c2ccc(F)cc2)OCc2cc(C#N)ccc21 ?
Marked response: inactive

Exam item: Hi, sorry to bother you, what did the test record for CC(C)c1cc2c(c(O)c1O)[C@@]1(C(=O)O)CCCC(C)(C)C1CC2 (some centres not stated) ?
Marked response: inactive

Exam item: Hi, sorry to bother you, what did the test record for CN1CCC[C@H]1c1cccnc1 ?
Marked response: inactive

Exam item: Hi, sorry to bother you, what did the test record for CC(C)N1C(=O)c2ccccc2NS1(=O)=O ?
Marked response: inactive

Exam item: Hi, sorry to bother you, what did the test record for O=C1NS(=O)(=O)c2ccccc21 ?
Marked response: inactive

Exam item: Hi, sorry to bother you, what did the test record for O=c1c(O)c(-c2ccccc2)oc2cc(O)ccc12 ?
Marked response: active

Exam item: Hi, sorry to bother you, what did the test record for COc1ccc(-c2c(OC)c3c(OC)c4c(cc3oc2=O)OC(C)(C)C=C4)cc1 ?
Marked response: inactive

Exam item: Hi, sorry to bother you, what did the test record for Cc1cc(O)c2c(c1)C(=O)c1cccc(O)c1C2=O ?
Marked response: inactive

Exam item: Hi, sorry to bother you, what did the test record for O=C1C=CC(=O)c2c(O)cccc21 ?
Marked response: inactive

Exam item: Hi, sorry to bother you, what did the test record for N[C@@H](C(=O)N[C@@H]1C(=O)N2C(C(=O)O)=C(Cl)CS[C@H]12)c1ccccc1 ?
Marked response: inactive

Exam item: Hi, sorry to bother you, what did the test record for C=C[C@H]1CN2CC[C@H]1C[C@H]2[C@H](O)c1ccnc2ccccc12 ?
Marked response: inactive
